# measured on: Sentrin-specific protease 8 (Homo sapiens)
# assay details: blockers of SENP8 deneddylase activity – biochemical, fluorescence, Nedd8 protein substrate, uHTS, primary screen (AID 602440)
# condition: recombinant SENP8, Nedd8 substrate fluorescence; at 20 µM; active compounds read high
Screen size: about 360,000 compounds; about 2,300 (0.64%) were called active. Shown is part of a subset that was picked to be rich in actives.
Decision: inhibition compared against 20%; not below it gives t, below it gives f.

1) O=C(c1cccnc1)N(c1cc2sc(=O)oc2c2ccccc12)S(=O)(=O)c1ccccc1; f
2) CCN(CC)CCOC(=O)c1ccc(NC(=O)CNC(=O)c2ccccc2)cc1; f
3) COC(=O)c1ccc2c(=O)n(CCN3CCOCC3)c(SCC(=O)Nc3cccc(OC)c3)nc2c1; f

Dear colleague, could you confirm whether NC(=O)C1CC(=O)N(c2ccc(OCC(=O)NCc3ccccc3)cc2)C1 (stereo not drawn) has inhibition at or above 20%? f

Has `CCNc1nc(N)nc(Oc2ccc(OCC)nn2)n1` a recorded inhibition greater than or equal to 20%? f

Identify whether the reported inhibition of the following compound is 20% or greater: `CCOC(=O)CNC(=O)N1c2ccccc2Sc2ccccc21` t

----------
# measured on: Sentrin-specific protease 8 (Homo sapiens) (UniProt Q96LD8)
# Sequence (Q96LD8 whole entry, looked up): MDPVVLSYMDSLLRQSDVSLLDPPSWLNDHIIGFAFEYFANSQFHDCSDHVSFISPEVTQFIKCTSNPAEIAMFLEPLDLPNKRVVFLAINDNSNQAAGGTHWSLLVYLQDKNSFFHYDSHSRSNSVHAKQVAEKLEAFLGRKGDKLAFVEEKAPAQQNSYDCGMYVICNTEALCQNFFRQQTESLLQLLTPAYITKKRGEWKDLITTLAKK
# assay details: blockers of SENP8 deneddylase activity – biochemical, fluorescence, Nedd8 protein substrate, uHTS, primary screen (AID 602440)
# condition: recombinant SENP8, Nedd8 substrate fluorescence; at 20 µM; active compounds read high
Screen size: about 360,000 compounds; about 2,300 (0.64%) were called active. The entries come from a sample that favours actives as a whole.
inhibition below 40% gives -1; inhibition at or above it gives 1.

Reference set (5 entries):
1) O=C(N=C1SC2CS(=O)(=O)CC2N1Cc1ccccc1)c1ccccc1 (stereo unspecified); -1
2) O=C(CCC1CCCC1)N=C1SC2CS(=O)(=O)CC2N1Cc1ccccc1 (stereo unspecified); -1
3) CC(C)CC(=O)N=C1SC2CS(=O)(=O)CC2N1CCc1ccccc1 (stereo unspecified); 1
4) CC(C)Cc1nnc(NC(=O)CCC(=O)Nc2ccc3cn[nH]c3c2)s1; 1
5) COc1cc(N2CCCC2)c(OC)cc1/C=C(/C#N)c1cccc(Br)c1; 1

Could you now consider this next molecule?
Test whether the molecule `Cc1ccc2c(Cl)c(C(=O)Nc3nn[nH]n3)sc2c1` records inhibition of 40% or higher. -1

----------
# measured on: Sentrin-specific protease 8 (Homo sapiens) (UniProt Q96LD8)
# assay details: blockers of SENP8 deneddylase activity – biochemical, fluorescence, Nedd8 protein substrate, uHTS, primary screen (AID 602440)
# condition: recombinant SENP8, Nedd8 substrate fluorescence; at 20 µM
The campaign covered roughly 360,000 compounds. About 2,300 (0.64%) were called active. No stated cut-off is given here; in the data, active means inhibition mostly above about 40% (no sharp cut-off); inactive means mostly below about 27%. Shown is part of a subset that was picked to be rich in actives.
Outcome (select one): active, inactive

Recorded results for 6 molecules are shown here.
1. O=C(COc1ccccc1)N1CCc2ccccc2C1; active
2. CN(C)S(=O)(=O)c1cc(C(=O)Nc2ccn(C)n2)c(Cl)cc1Cl; inactive
3. CC(=O)NC(CC(=O)Nc1nccs1)c1ccccc1 (stereo not given); inactive
4. NC(=O)C1CC=CCC1C(=O)OCC(Cl)=C(Cl)Cl (stereo not given); inactive
5. CN(C(=O)COC(=O)CNC(=O)C12CC3CC(CC(C3)C1)C2)c1ccccc1; inactive
6. CN1CCN(CC(=O)C23CC4CC(CC(C4)C2)C3)CC1; inactive

Outcome logged for `O=C(c1c(F)cccc1Cl)N1CCN(S(=O)(=O)c2ccc3c(c2)OCCCO3)CC1` in this assay: inactive

Assay result, entry Cc1n[nH]c(C)c1S(=O)(=O)N1CCCC(C(=O)Nc2ccc(Br)cc2)C1 (stereo not given) — outcome? inactive

What did this assay record as the result for `CCOc1c(Br)cc(/C=C2\C(=O)N(CCC#N)N=C2C)cc1OC` ? active

GET /call?item= `Clc1ccc(C2=CSC3=Nc4cccc5cccc(c45)N23)cc1` returns the recorded outcome of this test. active

Can you look up the reported call for `O=C(c1ccccc1F)N(Cc1ccccc1)Cc1ccccc1` for me? inactive
